# test_system: PI3K (p110β/p85α) (Homo sapiens, UniProt P42338)
# Sequence (P42338 whole entry, one chain of several): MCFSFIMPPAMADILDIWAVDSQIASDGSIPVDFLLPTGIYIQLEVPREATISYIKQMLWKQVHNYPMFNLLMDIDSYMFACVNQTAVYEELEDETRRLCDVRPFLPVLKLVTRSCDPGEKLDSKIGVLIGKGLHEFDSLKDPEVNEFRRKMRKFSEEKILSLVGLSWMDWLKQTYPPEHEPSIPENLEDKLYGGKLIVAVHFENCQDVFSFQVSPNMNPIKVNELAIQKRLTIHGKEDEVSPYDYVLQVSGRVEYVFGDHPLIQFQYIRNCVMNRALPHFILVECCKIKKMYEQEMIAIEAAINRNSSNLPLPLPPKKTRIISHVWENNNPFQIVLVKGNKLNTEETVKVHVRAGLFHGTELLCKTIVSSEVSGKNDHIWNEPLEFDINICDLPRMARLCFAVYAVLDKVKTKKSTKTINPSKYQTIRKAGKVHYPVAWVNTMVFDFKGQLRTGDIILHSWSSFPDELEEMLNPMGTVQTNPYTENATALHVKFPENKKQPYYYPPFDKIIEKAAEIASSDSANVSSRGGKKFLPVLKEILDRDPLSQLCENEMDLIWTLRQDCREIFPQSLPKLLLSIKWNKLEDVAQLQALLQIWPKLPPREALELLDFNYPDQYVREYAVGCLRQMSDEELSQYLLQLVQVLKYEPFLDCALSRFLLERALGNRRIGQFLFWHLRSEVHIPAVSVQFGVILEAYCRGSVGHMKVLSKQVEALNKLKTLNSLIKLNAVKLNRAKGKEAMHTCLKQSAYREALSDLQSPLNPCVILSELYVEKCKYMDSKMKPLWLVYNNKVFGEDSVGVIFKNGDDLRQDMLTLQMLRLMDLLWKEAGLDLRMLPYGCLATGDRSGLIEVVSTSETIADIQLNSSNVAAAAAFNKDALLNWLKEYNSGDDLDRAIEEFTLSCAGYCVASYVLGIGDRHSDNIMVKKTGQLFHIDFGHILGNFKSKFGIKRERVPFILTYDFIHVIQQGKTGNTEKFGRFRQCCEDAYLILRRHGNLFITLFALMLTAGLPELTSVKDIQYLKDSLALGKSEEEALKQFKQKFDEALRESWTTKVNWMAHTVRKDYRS
# test_summary: PI3Kβ ADP-Glo kinase assay
# Format: biochemical
# reported_conditions: read-out: PI3Kβ Enzyme activity IC50
Quick list: IC50 per entry.
measured_attribute: IC50 (nM)

Cc1nc([C@@H](C)c2cc(Cl)c(F)c(-c3ccc(C(=O)N4CCC[C@@H]4C(=O)O)nc3)c2OC(C)C)n2ccnc(N)c12 [Compound 69]	610
Cc1nc([C@@H](C)c2cc(Cl)c(F)c(-c3ccc(C(=O)N4CC[C@@H](O)C4)nc3)c2OC(C)C)n2ccnc(N)c12 [Compound 64]	1600
CCOc1c(C(C)c2nc(Cl)c3c(N)nccn23)cc(Cl)c(F)c1C1CCOCC1 (single isomer, unassigned) [Compound 49A]	260

---

# test_summary: Pharmacokinetic properties in Sprague-Dawley rats after IV and PO administration
# Assay type: in vivo
# reported_conditions: male, plasma, 5 mg/kg, rat, PO (5 mpk)
Quick list: half-life per entry.
measured_attribute: half-life (h)

CC(C)Oc1c(C(C)c2nc(Cl)c3c(N)nccn23)cc(Cl)c(F)c1C1CNC(=O)C1 (single isomer, unassigned) [Compound 48B]	2.1
CC(C)Oc1c([C@H](C)c2nc(Cl)c3c(N)nccn23)cc(Cl)c(F)c1-c1ccc(C(F)(F)F)nc1 [Compound 40A]	6.6
CC(C)Oc1c([C@H](C)c2nc(Cl)c3c(N)nccn23)cc(Cl)c(F)c1-c1ccc(C(=O)N(C)C)nc1 [Compound 16A]	1.9

---

# test_system: recombinant PI3K (p110α/p85α) (Homo sapiens, UniProt P42336)
# Sequence (P42336 whole entry): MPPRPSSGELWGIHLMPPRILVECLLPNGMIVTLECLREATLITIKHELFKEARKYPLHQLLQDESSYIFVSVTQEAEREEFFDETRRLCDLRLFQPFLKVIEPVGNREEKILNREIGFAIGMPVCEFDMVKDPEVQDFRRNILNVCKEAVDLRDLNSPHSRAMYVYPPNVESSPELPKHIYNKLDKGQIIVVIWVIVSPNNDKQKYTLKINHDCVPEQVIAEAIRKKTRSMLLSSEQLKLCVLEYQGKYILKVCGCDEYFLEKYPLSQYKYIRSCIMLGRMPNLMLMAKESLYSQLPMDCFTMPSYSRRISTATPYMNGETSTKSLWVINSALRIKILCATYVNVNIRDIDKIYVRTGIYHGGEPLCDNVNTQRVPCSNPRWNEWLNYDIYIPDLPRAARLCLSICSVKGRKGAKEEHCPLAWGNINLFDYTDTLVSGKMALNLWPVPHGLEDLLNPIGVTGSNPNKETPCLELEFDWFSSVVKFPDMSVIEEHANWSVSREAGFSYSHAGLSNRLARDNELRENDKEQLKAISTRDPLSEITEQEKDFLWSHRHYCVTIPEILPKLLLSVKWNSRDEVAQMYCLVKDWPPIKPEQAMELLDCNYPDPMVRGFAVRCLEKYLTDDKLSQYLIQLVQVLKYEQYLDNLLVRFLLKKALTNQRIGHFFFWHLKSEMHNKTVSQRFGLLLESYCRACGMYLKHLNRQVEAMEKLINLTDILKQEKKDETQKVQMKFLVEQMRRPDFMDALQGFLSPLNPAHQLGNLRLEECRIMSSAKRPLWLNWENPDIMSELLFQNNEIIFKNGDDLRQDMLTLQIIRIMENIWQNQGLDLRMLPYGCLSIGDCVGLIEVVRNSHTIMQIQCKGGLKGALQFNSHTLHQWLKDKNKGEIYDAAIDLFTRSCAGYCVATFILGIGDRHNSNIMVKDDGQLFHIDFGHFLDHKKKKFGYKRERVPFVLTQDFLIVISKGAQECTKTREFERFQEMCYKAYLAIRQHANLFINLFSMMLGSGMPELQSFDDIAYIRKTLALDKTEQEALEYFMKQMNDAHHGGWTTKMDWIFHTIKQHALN
# Sequence (P27986 whole entry partner): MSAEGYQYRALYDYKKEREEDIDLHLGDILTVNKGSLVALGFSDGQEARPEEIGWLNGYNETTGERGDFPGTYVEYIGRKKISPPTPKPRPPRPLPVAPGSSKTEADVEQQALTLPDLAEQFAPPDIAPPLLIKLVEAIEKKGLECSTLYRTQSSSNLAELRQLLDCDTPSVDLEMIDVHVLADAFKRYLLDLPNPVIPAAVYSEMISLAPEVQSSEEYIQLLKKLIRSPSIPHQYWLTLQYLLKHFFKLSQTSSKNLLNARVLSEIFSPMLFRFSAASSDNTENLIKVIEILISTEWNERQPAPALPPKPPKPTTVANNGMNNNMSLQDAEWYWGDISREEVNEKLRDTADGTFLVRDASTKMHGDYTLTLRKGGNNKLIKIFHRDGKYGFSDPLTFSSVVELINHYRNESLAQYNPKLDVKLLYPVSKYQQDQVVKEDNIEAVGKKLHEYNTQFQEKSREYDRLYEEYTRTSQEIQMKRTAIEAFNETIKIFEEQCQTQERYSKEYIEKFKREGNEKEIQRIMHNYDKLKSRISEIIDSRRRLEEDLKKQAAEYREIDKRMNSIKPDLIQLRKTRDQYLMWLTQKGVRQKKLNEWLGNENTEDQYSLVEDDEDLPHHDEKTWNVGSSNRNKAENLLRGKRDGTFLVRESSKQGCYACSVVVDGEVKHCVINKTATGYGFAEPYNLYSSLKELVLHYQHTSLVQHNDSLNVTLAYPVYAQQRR
# test_summary: PI3Kα ADP-Glo kinase assay
# Format: biochemical
# reported_conditions: read-out: PI3Kα Enzyme activity IC50
pIC50: −log10 of the molar value.
measured_attribute: pIC50

CCOc1c(C(C)c2nc(Cl)c3c(N)nccn23)cc(Cl)c(C)c1N1CCOCC1 (stereo not shown) [Compound 51]	5.54
CCCOc1c([C@H](C)c2nc(Cl)c3c(N)nccn23)cc(Cl)c(F)c1-c1ccc(C(F)(F)F)nc1 [Compound 42A]	4.59
CC(c1cc(Cl)c(C#N)c(=O)n1-c1ccccc1)n1cc(Br)c2c(N)ncnc21 (stereo not shown)	4.54
Cc1nc([C@@H](C)c2cc(Cl)c(F)c(-c3ccc(C(=O)N4CCC[C@@H]4C(=O)O)nc3)c2OC(C)C)n2ccnc(N)c12	5.15
CCOc1c(C(C)c2nc(Br)c3c(N)nccn23)cc(Cl)c(C)c1-c1ccc(Cl)nc1 (stereo not shown)	5.82
Cc1nc([C@@H](C)c2cc(Cl)c(F)c(-c3ccc(C(=O)NC(C)(C)C(=O)O)nc3)c2OC(C)C)n2ccnc(N)c12	5.36
COc1c(C(C)c2nc(Br)c3c(N)nccn23)cc(Cl)c(C)c1-c1cccnc1 (stereo not shown)	6.25

---

# test_system: recombinant PI3K (p110δ/p85α) (Homo sapiens, UniProt O00329)
# Sequence (O00329 whole entry, one chain of several): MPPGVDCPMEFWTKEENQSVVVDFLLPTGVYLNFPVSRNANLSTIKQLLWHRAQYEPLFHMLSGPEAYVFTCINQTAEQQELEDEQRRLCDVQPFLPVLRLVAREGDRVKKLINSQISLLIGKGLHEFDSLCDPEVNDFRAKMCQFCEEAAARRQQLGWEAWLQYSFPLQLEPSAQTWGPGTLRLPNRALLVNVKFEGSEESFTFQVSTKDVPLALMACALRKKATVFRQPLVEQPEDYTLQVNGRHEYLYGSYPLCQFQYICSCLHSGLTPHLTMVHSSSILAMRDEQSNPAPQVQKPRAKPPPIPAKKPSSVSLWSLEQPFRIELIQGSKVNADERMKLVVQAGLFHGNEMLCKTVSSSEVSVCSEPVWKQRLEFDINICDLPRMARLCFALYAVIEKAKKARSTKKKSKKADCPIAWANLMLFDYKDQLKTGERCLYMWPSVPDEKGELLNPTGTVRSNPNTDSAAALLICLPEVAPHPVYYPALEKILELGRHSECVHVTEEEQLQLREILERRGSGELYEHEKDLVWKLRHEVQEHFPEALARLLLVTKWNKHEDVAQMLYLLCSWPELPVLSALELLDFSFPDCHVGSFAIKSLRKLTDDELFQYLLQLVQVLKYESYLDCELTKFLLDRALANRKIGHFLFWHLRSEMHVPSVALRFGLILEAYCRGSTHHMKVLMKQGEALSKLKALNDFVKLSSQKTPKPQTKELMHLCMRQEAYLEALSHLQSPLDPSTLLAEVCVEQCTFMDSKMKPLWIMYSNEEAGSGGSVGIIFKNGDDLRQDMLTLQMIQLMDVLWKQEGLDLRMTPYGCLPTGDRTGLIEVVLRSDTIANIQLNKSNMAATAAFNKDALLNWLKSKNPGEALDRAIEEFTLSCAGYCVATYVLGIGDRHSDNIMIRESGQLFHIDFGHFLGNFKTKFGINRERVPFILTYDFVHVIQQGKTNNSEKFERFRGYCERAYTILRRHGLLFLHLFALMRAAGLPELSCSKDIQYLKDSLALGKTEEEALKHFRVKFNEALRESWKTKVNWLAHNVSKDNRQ
# test_summary: PI3Kδ ADP-Glo kinase assay
# Type: biochemical
# reported_conditions: read-out: PI3Kδ Enzyme activity IC50
# Protocol: Compounds disclosed herein were tested for inhibition of PI3Kδ kinase activity using commercial ADP-Glo™ Kinase Assay (Promega Corporation) and following the manufacture's instruction. […] After incubation for 1 hr at room temperature, kinase detection reagent was added to simultaneously convert ADP to ATP and allow the newly synthesized ATP to be measured using a luciferase/luciferin reaction. […]
pIC50: −log10 of the molar value.
measured_attribute: pIC50

CCCOc1c([C@@H](C)c2nc(Cl)c3c(N)nccn23)cc(Cl)c(F)c1-c1ccc(C(F)(F)F)nc1 [Compound 42B]	6.48
CCOc1c([C@H](C)c2nc(Cl)c3c(N)nccn23)cc(Cl)c(F)c1-c1ccc(C(F)(F)F)nc1OC [Compound 43A]	7.55
COc1c(C(C)c2ncc3c(N)nccn23)cc(Cl)c(C)c1-c1cccnc1 (stereo not shown)	6.82
Cc1nc([C@@H](C)c2cc(Cl)c(F)c(-c3ccc(C(=O)N4CCC(O)CC4)nc3)c2OC(C)C)n2ccnc(N)c12	9.24
CC(C)Oc1c(C(C)c2nc(Cl)c3c(N)nccn23)cc(Cl)c(F)c1C1CNC(=O)C1 (single isomer, unassigned) [Compound 48C]	6.80
CCOc1c(C(C)c2nc(Cl)c3c(N)nccn23)cc(Cl)c(C)c1-c1ccc(C)nc1 (stereo not shown)	8.96
COc1c(C(C)c2nc(Br)c3c(N)nccn23)cc(Cl)c(C)c1-c1cccnc1 (stereo not shown)	8.82
